# System: Str. pyogenes, G-36
# testDescription: Antimicrobial activity (MIC), standard method of Japan Society of Chemotherapy
# Assay type: cell-based
# settings: Streptococcus pyogenes, G36, read-out: MIC
Structures can show the parent of a compound that is named as a salt.
measurementType: MIC (µg/mL)

> print(dat)
                                   molecule           testsystem  measurementtype  prefixoperator  number
1  C[C@H]1COc2c(N3C[C@@H](F)[C@@H](C4(N)CC4)C3)c(F)cc3c(=O)c(C(=O)O)cn1c23.Cl [Example 6]  Str. pyogenes, G-36              MIC               =    0.01
2  C[C@H]1COc2c(N3C[C@@H](F)[C@@H](C4(N)CC4)C3)c(F)c(N)c3c(=O)c(C(=O)O)cn1c23 [Example 8]  Str. pyogenes, G-36              MIC               =   0.025
3  Cc1c(N2C[C@@H](F)[C@@H](C3(N)CC3)C2)c(F)c(N)c2c(=O)c(C(=O)O)cn([C@@H]3C[C@@H]3F)c12 [Example 2, hydrochloride]  Str. pyogenes, G-36              MIC               ≤   0.003
4  COc1c(N2C[C@@H](F)[C@@H](C3(N)CC3)C2)c(F)c(N)c2c(=O)c(C(=O)O)cn([C@@H]3C[C@@H]3F)c12 [Example 3]  Str. pyogenes, G-36              MIC               =   0.013

* * *

# Tested on: Pr. mirabilis, IFO-3849
# testDescription: Antimicrobial activity (MIC), standard method of Japan Society of Chemotherapy
# Type: cell-based
# settings: Proteus mirabilis, IFO3849, read-out: MIC
Where a name gives a salt, the structure may show the parent alone.
measurementType: MIC

> print(dat)
                                   molecule  measurementtype      result
1  C[C@H]1COc2c(N3C[C@@H](F)[C@@H](C4(N)CC4)C3)c(F)c(N)c3c(=O)c(C(=O)O)cn1c23              MIC    0.1 mg/L
2  Cc1c(N2C[C@@H](F)[C@@H](C3(N)CC3)C2)c(F)c(N)c2c(=O)c(C(=O)O)cn([C@@H]3C[C@@H]3F)c12 [Example 2, hydrochloride]              MIC  0.025 mg/L
3  COc1c(N2C[C@@H](F)[C@@H](C3(N)CC3)C2)c(F)c(N)c2c(=O)c(C(=O)O)cn([C@@H]3C[C@@H]3F)c12              MIC    0.1 mg/L
4  C[C@H]1COc2c(N3C[C@@H](F)[C@@H](C4(N)CC4)C3)c(F)cc3c(=O)c(C(=O)O)cn1c23.Cl              MIC    0.1 mg/L

* * *

# System: Pr. vulgaris, 08601
# testDescription: Antimicrobial activity (MIC), standard method of Japan Society of Chemotherapy
# Format: cell-based
# settings: Proteus vulgaris, read-out: MIC
Structures can show the parent of a compound that is named as a salt.
Items are presented alongside their recorded MIC.
measurementType: MIC (µg/mL)

> print(dat)
                                   molecule  number
1  C[C@H]1COc2c(N3C[C@@H](F)[C@@H](C4(N)CC4)C3)c(F)c(N)c3c(=O)c(C(=O)O)cn1c23 [Example 8]     0.1
2  Cc1c(N2C[C@@H](F)[C@@H](C3(N)CC3)C2)c(F)c(N)c2c(=O)c(C(=O)O)cn([C@@H]3C[C@@H]3F)c12 [Example 2, hydrochloride]   0.013
3  C[C@H]1COc2c(N3C[C@@H](F)[C@@H](C4(N)CC4)C3)c(F)cc3c(=O)c(C(=O)O)cn1c23.Cl [Example 6]   0.025
4  COc1c(N2C[C@@H](F)[C@@H](C3(N)CC3)C2)c(F)c(N)c2c(=O)c(C(=O)O)cn([C@@H]3C[C@@H]3F)c12 [Example 3]    0.05

* * *

# Tested on: Slc:ddy male mice
# testDescription: Acute toxicity, intravenous administration to mice
# Assay type: in vivo
# settings: 150 mg/kg intravenously, five per group, deaths/mice dosed
Counter-ions that a name gives are not always drawn. Marks after values point to notes of the source that are not given here.
measurementType: Number of death

> print(dat)
                                   compound       result
1  COc1c(N2C[C@@H](F)[C@@H](C3(N)CC3)C2)c(F)c(N)c2c(=O)c(C(=O)O)cn([C@@H]3C[C@@H]3F)c12  same result
2  C[C@H]1COc2c(N3C[C@@H](F)[C@@H](C4(N)CC4)C3)c(F)c(N)c3c(=O)c(C(=O)O)cn1c23  same result
3  C[C@H]1COc2c(N3C[C@@H](F)[C@@H](C4(N)CC4)C3)c(F)cc3c(=O)c(C(=O)O)cn1c23  same result
4  COc1c(N2C[C@@H](F)[C@@H](C3(N)CC3)C2)c(F)cc2c(=O)c(C(=O)O)cn([C@@H]3C[C@@H]3F)c12  same result
5  Cc1c(N2C[C@@H](F)[C@@H](C3(N)CC3)C2)c(F)c(N)c2c(=O)c(C(=O)O)cn([C@@H]3C[C@@H]3F)c12 [Example 2, hydrochloride]          0/5
6  Cc1c(N2C[C@H](F)[C@@H](C3(N)CC3)C2)c(F)c(N)c2c(=O)c(C(=O)O)cn([C@@H]3C[C@@H]3F)c12 [trans, reference compound]         2/2*
7  Cc1c(N2CC(F)[C@@H](C3(N)CCC3)C2)c(F)c(N)c2c(=O)c(C(=O)O)cn(C3CC3F)c12 (single isomer, unassigned; isomer b)  same result
8  Cc1c(N2CC(CO)C(C3(N)CC3)C2)c(F)c(N)c2c(=O)c(C(=O)O)cn(C3CC3)c12 (centres unmarked)  same result

* * *

Parameter MIC: see the listing below.
# Tested on: Ser. marcescens, 10100
# testDescription: Antimicrobial activity (MIC), standard method of Japan Society of Chemotherapy
# Assay type: cell-based
# settings: Serratia marcescens, read-out: MIC
Structures can show the parent of a compound that is named as a salt.
measurementType: MIC (µg/mL)

> print(dat)
                                   compound  measurementtype  number
1  Cc1c(N2C[C@@H](F)[C@@H](C3(N)CC3)C2)c(F)c(N)c2c(=O)c(C(=O)O)cn([C@@H]3C[C@@H]3F)c12 [Example 2, hydrochloride]              MIC    0.05
2  C[C@H]1COc2c(N3C[C@@H](F)[C@@H](C4(N)CC4)C3)c(F)c(N)c3c(=O)c(C(=O)O)cn1c23 [Example 8]              MIC     0.2
3  C[C@H]1COc2c(N3C[C@@H](F)[C@@H](C4(N)CC4)C3)c(F)cc3c(=O)c(C(=O)O)cn1c23.Cl [Example 6]              MIC     0.1
4  COc1c(N2C[C@@H](F)[C@@H](C3(N)CC3)C2)c(F)c(N)c2c(=O)c(C(=O)O)cn([C@@H]3C[C@@H]3F)c12 [Example 3]              MIC     0.2

* * *

# Tested on: E. coli, NIHJ
# testDescription: Antimicrobial activity (MIC), standard method of Japan Society of Chemotherapy
# Assay type: cell-based
# settings: Escherichia coli, read-out: MIC
Structures can show the parent of a compound that is named as a salt.
measurementType: MIC (ng/mL)

> print(dat)
                                   compound     testsystem  prefixoperator  number
1  C[C@H]1COc2c(N3C[C@@H](F)[C@@H](C4(N)CC4)C3)c(F)cc3c(=O)c(C(=O)O)cn1c23.Cl  E. coli, NIHJ               =      10
2  C[C@H]1COc2c(N3C[C@@H](F)[C@@H](C4(N)CC4)C3)c(F)c(N)c3c(=O)c(C(=O)O)cn1c23  E. coli, NIHJ               =       6
3  COc1c(N2C[C@@H](F)[C@@H](C3(N)CC3)C2)c(F)c(N)c2c(=O)c(C(=O)O)cn([C@@H]3C[C@@H]3F)c12  E. coli, NIHJ               =       6
4  Cc1c(N2C[C@@H](F)[C@@H](C3(N)CC3)C2)c(F)c(N)c2c(=O)c(C(=O)O)cn([C@@H]3C[C@@H]3F)c12 [Example 2, hydrochloride]  E. coli, NIHJ               ≤       3
